Reference for the values: the supplement of paper PMC7017272

Would you mind telling me the reported maximal % inhibition of viability of each entry?
Tested on: UT-SCC-24A
assay_protocol: maximal % inhibition of viability relative to DMSO; higher = stronger effect
measurement_context: culture condition: embedded in Matrigel; treatment time: 3 days
One number for each entry, in %.

Reported maximal % inhibition of viability for `COc1ncc(-c2ccc3nccc(-c4ccnnc4)c3c2)cc1NS(=O)(=O)c1ccc(F)cc1F` was 95.2

Reported maximal % inhibition of viability for `O=C(NC[C@H](O)CO)c1ccncc1Nc1ccc(I)cc1F` was 85

Reported maximal % inhibition of viability for `CO[C@H]1C[C@@H]2CC[C@@H](C)[C@@](O)(O2)C(=O)C(=O)N2CCCC[C@H]2C(=O)O[C@H]([C@H](C)C[C@@H]2CC[C@@H](OC(=O)C(C)(CO)CO)[C@H](OC)C2)CC(=O)[C@H](C)/C=C(\C)[C@@H](O)[C@@H](OC)C(=O)[C@H](C)C[C@H](C)/C=C/C=C/C=C/1C` was 46.8

Reported maximal % inhibition of viability for `CO[C@H]1C[C@@H]2CC[C@@H](C)[C@@](O)(O2)C(=O)C(=O)N2CCCC[C@H]2C(=O)O[C@H]([C@H](C)C[C@@H]2CC[C@@H](OCCO)[C@H](OC)C2)CC(=O)[C@H](C)/C=C(\C)[C@@H](O)[C@@H](OC)C(=O)[C@H](C)C[C@H](C)/C=C/C=C/C=C/1C` was 51.3

Reported maximal % inhibition of viability for `CC(=O)Nc1cccc(-n2c(=O)n(C3CC3)c(=O)c3c(Nc4ccc(I)cc4F)n(C)c(=O)c(C)c32)c1` was 74.7

Look up maximal % inhibition of viability for the entries below, preserving their order.
1. Cn1c(=O)c(F)c(Nc2ccc(I)cc2F)c2c(=O)n(C[C@@H](O)CO)cnc21
2. CN(C)C/C=C/C(=O)Nc1cc2c(Nc3ccc(F)c(Cl)c3)ncnc2cc1O[C@H]1CCOC1

Result block:
1: 81.5; 2: 79.9

Look up maximal % inhibition of viability for the entries below, preserving their order.
1. C#Cc1cccc(Nc2ncnc3cc(OCCOC)c(OCCOC)cc23)c1
2. Cn1c(=O)n(-c2ccc(C(C)(C)C#N)cc2)c2c3cc(-c4cnc5ccccc5c4)ccc3ncc21
3. COc1cc(F)c(F)c(Nc2ccc(I)cc2F)c1NS(=O)(=O)C1(C[C@H](O)CO)CC1
4. C=CC(=O)Nc1cc2c(Nc3ccc(F)c(Cl)c3)ncnc2cc1OCCCN1CCOCC1
5. Cc1c(CN2CCN(C(=O)[C@H](C)O)CC2)sc2c(N3CCOCC3)nc(-c3cnc(N)nc3)nc12
6. COc1ccc(-c2cc3c(C)nc(N)nc3n([C@H]3CC[C@H](OCCO)CC3)c2=O)cn1

Result block:
1: 65.2; 2: 34.6; 3: 84.4; 4: 99.6; 5: 90.3; 6: 79.2

* * *

Would you mind telling me the reported relative IC50 of each entry?
System: UT-SCC-40
assay_protocol: relative IC50 (midpoint of the fitted curve; maximal inhibition may be below 50%); higher = less potent
measurement_context: culture condition: plastic 2D (no matrix); treatment time: 3 days
Numbers only, in nM.

Some entries whose results are on file:
Reported relative IC50 for `CO[C@H]1C[C@@H]2CC[C@@H](C)[C@@](O)(O2)C(=O)C(=O)N2CCCC[C@H]2C(=O)O[C@H]([C@H](C)C[C@@H]2CC[C@@H](OCCO)[C@H](OC)C2)CC(=O)[C@H](C)/C=C(\C)[C@@H](O)[C@@H](OC)C(=O)[C@H](C)C[C@H](C)/C=C/C=C/C=C/1C` was 9.09

Reported relative IC50 for `CN(C)C/C=C/C(=O)Nc1cc2c(Nc3ccc(F)c(Cl)c3)ncnc2cc1O[C@H]1CCOC1` was 33.1

Reported relative IC50 for `COc1cc(F)c(F)c(Nc2ccc(I)cc2F)c1NS(=O)(=O)C1(C[C@H](O)CO)CC1` was 111

Look up relative IC50 for the entries below, preserving their order.
1. O=C(NC[C@H](O)CO)c1ccncc1Nc1ccc(I)cc1F
2. COc1ncc(-c2ccc3nccc(-c4ccnnc4)c3c2)cc1NS(=O)(=O)c1ccc(F)cc1F
3. C=CC(=O)Nc1cc2c(Nc3ccc(F)c(Cl)c3)ncnc2cc1OCCCN1CCOCC1
4. Cn1cnc2c(F)c(Nc3ccc(Br)cc3F)c(C(=O)NOCCO)cc21
5. CO[C@H]1C[C@@H]2CC[C@@H](C)[C@@](O)(O2)C(=O)C(=O)N2CCCC[C@H]2C(=O)O[C@H]([C@H](C)C[C@@H]2CC[C@@H](OP(C)(C)=O)[C@H](OC)C2)CC(=O)[C@H](C)/C=C(\C)[C@@H](O)[C@@H](OC)C(=O)[C@H](C)C[C@H](C)/C=C/C=C/C=C/1C
6. Cn1c(=O)c(F)c(Nc2ccc(I)cc2F)c2c(=O)n(C[C@@H](O)CO)cnc21

Result block:
[89, 11.7, 211, 51.7, 1.94, 10.6]

Reported relative IC50 for `Cc1c(CN2CCN(C(=O)[C@H](C)O)CC2)sc2c(N3CCOCC3)nc(-c3cnc(N)nc3)nc12` was 1820

* * *

Test system: UT-SCC-40
assay_protocol: maximal % inhibition of viability relative to DMSO; higher = stronger effect
measurement_context: culture condition: embedded in Myogel + collagen I; treatment time: 3 days
parameter_measured: maximal % inhibition of viability (%)
One number for each entry, in %.

# `Cn1c(=O)n(-c2ccc(C(C)(C)C#N)cc2)c2c3cc(-c4cnc5ccccc5c4)ccc3ncc21` with UT-SCC-40: maximal % inhibition of viability is 8.93

# `CO[C@H]1C[C@@H]2CC[C@@H](C)[C@@](O)(O2)C(=O)C(=O)N2CCCC[C@H]2C(=O)O[C@H]([C@H](C)C[C@@H]2CC[C@@H](OC(=O)C(C)(CO)CO)[C@H](OC)C2)CC(=O)[C@H](C)/C=C(\C)[C@@H](O)[C@@H](OC)C(=O)[C@H](C)C[C@H](C)/C=C/C=C/C=C/1C` with UT-SCC-40: maximal % inhibition of viability is 40.5

# `CC(=O)Nc1cccc(-n2c(=O)n(C3CC3)c(=O)c3c(Nc4ccc(I)cc4F)n(C)c(=O)c(C)c32)c1` with UT-SCC-40: maximal % inhibition of viability is 61.7

# `COc1cc(F)c(F)c(Nc2ccc(I)cc2F)c1NS(=O)(=O)C1(C[C@H](O)CO)CC1` with UT-SCC-40: maximal % inhibition of viability is 76

# `C=CC(=O)Nc1cc2c(Nc3ccc(F)c(Cl)c3)ncnc2cc1OCCCN1CCOCC1` with UT-SCC-40: maximal % inhibition of viability is 99.4

Look up maximal % inhibition of viability for the entries below, preserving their order.
1. O=C(NC[C@H](O)CO)c1ccncc1Nc1ccc(I)cc1F
2. Cn1cnc2c(F)c(Nc3ccc(Br)cc3F)c(C(=O)NOCCO)cc21
3. CO[C@H]1C[C@@H]2CC[C@@H](C)[C@@](O)(O2)C(=O)C(=O)N2CCCC[C@H]2C(=O)O[C@H]([C@H](C)C[C@@H]2CC[C@@H](O)[C@H](OC)C2)CC(=O)[C@H](C)/C=C(\C)[C@@H](O)[C@@H](OC)C(=O)[C@H](C)C[C@H](C)/C=C/C=C/C=C/1C
4. COc1ccc(-c2cc3c(C)nc(N)nc3n([C@H]3CC[C@H](OCCO)CC3)c2=O)cn1
5. CN(C)C/C=C/C(=O)Nc1cc2c(Nc3ccc(F)c(Cl)c3)ncnc2cc1O[C@H]1CCOC1
6. Cn1cnc2c(F)c(Nc3ccc(Br)cc3Cl)c(C(=O)NOCCO)cc21

Result block:
1: 72.8; 2: 58.1; 3: 92; 4: 74; 5: 26.2; 6: 62.5

* * *

System: UT-SCC-24B
assay_protocol: maximal % inhibition of viability relative to DMSO; higher = stronger effect
measurement_context: culture condition: plastic 2D (no matrix); treatment time: 3 days
parameter_measured: maximal % inhibition of viability (%)
Numbers only, in %.

Some entries whose results are on file:
Reported maximal % inhibition of viability for `CO[C@H]1C[C@@H]2CC[C@@H](C)[C@@](O)(O2)C(=O)C(=O)N2CCCC[C@H]2C(=O)O[C@H]([C@H](C)C[C@@H]2CC[C@@H](OCCO)[C@H](OC)C2)CC(=O)[C@H](C)/C=C(\C)[C@@H](O)[C@@H](OC)C(=O)[C@H](C)C[C@H](C)/C=C/C=C/C=C/1C` was 24.9

Reported maximal % inhibition of viability for `Cn1c(=O)n(-c2ccc(C(C)(C)C#N)cc2)c2c3cc(-c4cnc5ccccc5c4)ccc3ncc21` was 76.2

Reported maximal % inhibition of viability for `CO[C@H]1C[C@@H]2CC[C@@H](C)[C@@](O)(O2)C(=O)C(=O)N2CCCC[C@H]2C(=O)O[C@H]([C@H](C)C[C@@H]2CC[C@@H](O)[C@H](OC)C2)CC(=O)[C@H](C)/C=C(\C)[C@@H](O)[C@@H](OC)C(=O)[C@H](C)C[C@H](C)/C=C/C=C/C=C/1C` was 90.4

Reported maximal % inhibition of viability for `COc1ccc(-c2cc3c(C)nc(N)nc3n([C@H]3CC[C@H](OCCO)CC3)c2=O)cn1` was 99.7

# input for lookup
Reported maximal % inhibition of viability for `Cn1cnc2c(F)c(Nc3ccc(Br)cc3F)c(C(=O)NOCCO)cc21` was 69.4
